- System: NCI/ADR-RES
- experimental_protocol: Intrinsic cytotoxicity against human MCF7/ADR cells assessed as inhibition of cell proliferation after 48 hrs by MTT assay
- Format: cell-based
# reported IC50; entries follow

Some solved entries appear below for comparison.
structure_as_smiles | IC50
CC(=O)O[C@@H]1C[C@@H](OC(=O)c2ccccc2)/C(C)=C/[C@H]2[C@@H](OC(=O)c3ccccc3)[C@@H](C)[C@H](OC(=O)c3ccco3)[C@]2(OC(C)=O)[C@H](O)[C@](C)(O)/C=C/C1(C)C | > 150 µM
CC(=O)O[C@@H]1C[C@@H](OC(=O)c2ccccc2)/C(C)=C/[C@H]2[C@@H](OC(=O)c3ccccc3)[C@@H](C)[C@H](OC(C)=O)[C@]2(OC(C)=O)C(=O)[C@](C)(O)/C=C/C1(C)C | > 150 µM
CC(=O)O/C1=C(\C)[C@H]2O[C@](C)([C@@H](OC(C)=O)[C@]3(OC(C)=O)[C@@H]2[C@@H](OC(=O)c2ccccc2)[C@@H](C)[C@@H]3OC(C)=O)[C@H]2O[C@@H]2C(C)(C)[C@H](OC(C)=O)[C@H]1OC(C)=O | 55.6 µM
CC(=O)O[C@@H]1C[C@@H](OC(=O)c2ccccc2)/C(C)=C/[C@H]2[C@@H](OC(=O)c3ccccc3)[C@@H](C)[C@H](O)[C@]2(OC(C)=O)[C@H](O)[C@](C)(O)CCC1(C)C | > 150 µM
COc1cc2c(cc1OC)CN(CCc1ccc(NC(=O)c3cc(OC)c(OC)cc3NC(=O)c3cnc4ccccc4c3)cc1)CC2 | 13.1 µM

Which value of IC50 has been reported for `CC(=O)O[C@@H]1C[C@@H](OC(=O)c2ccccc2)/C(C)=C/[C@H]2[C@@H](OC(=O)c3ccccc3)[C@@H](C)[C@H](O)[C@]2(OC(C)=O)[C@H](O)[C@](C)(O)/C=C/C1(C)C` in the records?
> 150 µM

----------
# reported pIC50; entries follow
- Test system: NCI/ADR-RES
- experimental_protocol: Intrinsic cytotoxicity against human MCF7/ADR cells assessed as inhibition of cell proliferation after 48 hrs by MTT assay
- Type: cell-based
pIC50: −log10 of the molar value.

structure_as_smiles | pIC50
CC(=O)O[C@@H]1C[C@@H](OC(=O)c2ccccc2)/C(C)=C/[C@H]2[C@@H](OC(=O)c3ccccc3)[C@@H](C)[C@H](OC(=O)c3ccccc3)[C@]2(OC(C)=O)[C@H](O)[C@](C)(O)/C=C/C1(C)C | 4.19
CC(=O)O[C@@H]1C[C@@H](OC(=O)c2ccccc2)/C(C)=C/[C@H]2[C@@H](OC(=O)c3ccccc3)[C@@H](C)[C@H](OC(=O)c3cccs3)[C@]2(OC(C)=O)[C@H](O)[C@](C)(O)/C=C/C1(C)C | < 3.82
CC(=O)O/C1=C(\C)[C@@H](O)[C@H]2[C@@H](OC(=O)c3ccccc3)[C@@H](C)[C@H](OC(=O)c3ccccc3)[C@]2(OC(C)=O)[C@H](OC(C)=O)/C(C)=C/CC(C)(C)[C@H](OC(C)=O)[C@H]1OC(C)=O | < 3.82

Continue with the compound presented below.
Which value of pIC50 has been reported for `CC(=O)O[C@@H]1C[C@@H](OC(=O)c2ccccc2)/C(C)=C/[C@H]2[C@@H](OC(=O)c3ccccc3)[C@@H](C)[C@H](OS(=O)(=O)c3ccc(C)cc3)[C@]2(OC(C)=O)[C@H](O)[C@](C)(O)/C=C/C1(C)C` in the records?
< 3.82

Source: ChEMBL document CHEMBL4431315
